FYI, the data here is from patent US8993248B2.

Record: Ki reported on yeast surface displayed hDBP3 (Homo sapiens, UniProt P02774).
Sequence (P02774 17-227): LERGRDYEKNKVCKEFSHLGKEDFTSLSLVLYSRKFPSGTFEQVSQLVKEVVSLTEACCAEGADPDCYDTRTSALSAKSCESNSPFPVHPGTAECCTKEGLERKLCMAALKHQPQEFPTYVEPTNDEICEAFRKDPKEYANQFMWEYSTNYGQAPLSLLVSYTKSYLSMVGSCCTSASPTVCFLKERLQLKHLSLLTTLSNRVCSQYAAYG
endpointName: Ki (nM)

> print(dat)
                                   compound  measurement
1  C=C1CC[C@H](O)C/C1=C/C=C1\CCC[C@]2(C)[C@@H]([C@H](C)CCCC(C)C)CC[C@@H]12         2970
2  C=C1CC[C@H](O)C/C1=C/C=C1\CCC[C@]2(C)[C@@H]([C@H](C)/C=C/[C@H](C)C(C)(C)O)CC[C@@H]12 [25-hydroxy Vitamin D2]          6.4
3  C=C1CC[C@H](O)C/C1=C/C=C1\CCC[C@]2(C)[C@@H]([C@H](C)CCCC(C)(C)O)CC[C@@H]12 [25-hydroxy Vitamin D3]          3.8
4  C=C1CC[C@H](O)C/C1=C/C=C1\CCC[C@]2(C)[C@@H]([C@H](C)/C=C/[C@H](C)C(C)C)CC[C@@H]12 [Vitamin D2]         1390
